B1: library; numbered along this chain (parent)
chain: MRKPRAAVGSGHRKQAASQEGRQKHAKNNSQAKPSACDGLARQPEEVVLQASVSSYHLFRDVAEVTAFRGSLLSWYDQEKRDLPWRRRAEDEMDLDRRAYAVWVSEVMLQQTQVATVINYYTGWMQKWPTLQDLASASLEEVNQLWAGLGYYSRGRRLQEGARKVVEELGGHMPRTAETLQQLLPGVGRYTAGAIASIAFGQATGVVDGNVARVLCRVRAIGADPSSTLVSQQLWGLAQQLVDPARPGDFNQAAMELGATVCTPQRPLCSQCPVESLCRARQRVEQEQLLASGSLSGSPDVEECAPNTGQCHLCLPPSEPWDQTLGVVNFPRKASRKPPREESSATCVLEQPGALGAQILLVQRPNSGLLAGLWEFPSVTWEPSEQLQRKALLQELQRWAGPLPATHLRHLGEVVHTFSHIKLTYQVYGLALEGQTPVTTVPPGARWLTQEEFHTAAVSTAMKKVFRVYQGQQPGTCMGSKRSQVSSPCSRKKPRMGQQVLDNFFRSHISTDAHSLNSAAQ

# Variants of: B1
# experiment-summary: 8OG:A repair function score (normalized; synonymous = 0, nonsense = -1) (normalized log-likelihood score); higher = more repair activity (WT-like);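 note: cells sorted at 72 h after reporter transfection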
# stated-conditions: with 8OG:A DNA repair reporter (GFP) in HEK-293 MUTYH KO cells
Record form. Attribute: 8OG:A repair function score. Fill in for each entry.

The reported value for L149N in terms of 8OG:A repair function score is -0.783

// 8OG:A repair function score lookup, variant = E319D , result: -0.0309

Record summary for I195N : reported 8OG:A repair function score = -1.12

In plain terms, C262E has a documented 8OG:A repair function score of -1.28

For reference, reported 8OG:A repair function score for R266E stands at -0.22

Given item Q394F , the value recorded as its 8OG:A repair function score is -0.00248

GET /value?item= L448P &field=8OG:A repair function score returns -0.895

Measured 8OG:A repair function score of A445L : -0.363

For this variant ( R2D ), measured 8OG:A repair function score is -0.112

Documented 8OG:A repair function score of Q132K : -0.364

// recorded 8OG:A repair function score for L180P : -1.03

get_value(item= E178K , readout=8OG:A repair function score) returns 0.0383

Reported 8OG:A repair function score ( L516K ) = 0.00908

In plain terms, A147V has a documented 8OG:A repair function score of -0.14

The variant L131V showed 8OG:A repair function score equal to -0.0573

The value of 8OG:A repair function score measured for the variant Y151S turned out to be -1.29

8OG:A repair function score recorded for this variant, P474D , is 0.00257

The variant Q358T showed 8OG:A repair function score equal to 0.145

Entry R506P , 8OG:A repair function score reported as 0.0202

Entry A137C , 8OG:A repair function score reported as -0.261

8OG:A repair function score measured on S510W = -0.046

Record K492R , field 8OG:A repair function score: -0.0207

Query V441N yields 8OG:A repair function score of -0.259

Just so you know, measured 8OG:A repair function score for I198D came out at -1.1

For record S490F the listed 8OG:A repair function score is -0.0204

8OG:A repair function score reported for this variant P299C : -0.0402

The recorded 8OG:A repair function score for entry R332D equals -0.574

Record V62L , field 8OG:A repair function score: 0.00583

# variant V218P ; its 8OG:A repair function score = -1.04

Measured 8OG:A repair function score of R332C : -0.154

Per the record, S486C has 8OG:A repair function score of -0.016

8OG:A repair function score reading for Q282V : -0.0489

Recorded result, Q484Y , 8OG:A repair function score: 0.00945

# 8OG:A repair function score of Q159P = -0.377

What the record says about L392I : 8OG:A repair function score is 0.0377

8OG:A repair function score in this record for Q232H : -0.21

Y152R yielded 8OG:A repair function score of -0.956

Form field 8OG:A repair function score, entry A67V : -0.000602

Looking up Q358P , I found its 8OG:A repair function score recorded as 0.069

V415F yielded 8OG:A repair function score of -0.391

Lab note: V274D gave 8OG:A repair function score of -1.01

Q472R yielded 8OG:A repair function score of 0.0222

Please fill in: 8OG:A repair function score reported for A253N = -1.01

The reported 8OG:A repair function score of the variant F200A was -0.576

The recorded 8OG:A repair function score for G248A is -0.729

8OG:A repair function score recorded for this variant, R283A , is -0.145

variant R81Q , 8OG:A repair function score observed: -0.483

The measured 8OG:A repair function score associated with T476A reads -0.0442

Memo: K80S , reported 8OG:A repair function score: -0.227

Given item V468H , the value recorded as its 8OG:A repair function score is -0.0347

L257S has a reported 8OG:A repair function score of -0.983

Lab book: 8OG:A repair function score of G497V noted as -0.00253

What the record says about V500R : 8OG:A repair function score is 0.00797

Query R60W yields 8OG:A repair function score of -0.564

Entry E319V ; 8OG:A repair function score = -0.0112

Lab book: 8OG:A repair function score of A431W noted as -0.13

get_value(item= V274Y , readout=8OG:A repair function score) returns -0.549

Reported 8OG:A repair function score for M462L was -0.449

// field: 8OG:A repair function score; key: S54E ; value = 0.00656

Value of measured 8OG:A repair function score for the entry T406Q : -0.294

Record M108W , field 8OG:A repair function score: -1.11

variant V485Q , 8OG:A repair function score observed: -0.0322

// field: 8OG:A repair function score; key: R154D ; value = -1.11

Lab note: measured 8OG:A repair function score of T406P was -0.287

In plain terms, P402W has a documented 8OG:A repair function score of -0.534

Entry under test: I118N . Its 8OG:A repair function score was -0.0549

Item: L234W | 8OG:A repair function score: -0.79

Reported 8OG:A repair function score for W124C was -0.794

The variant listed as G188I shows 8OG:A repair function score equal to -1.11

Reported 8OG:A repair function score ( V206Q ) = -0.927

The recorded 8OG:A repair function score for R482V is 0.00231

Measured 8OG:A repair function score of L501I : -0.0198

Entry S292Q ; 8OG:A repair function score = -0.0703

The variant identified as K464W registered its 8OG:A repair function score at -0.474

Lab note: G497R gave 8OG:A repair function score of -0.0166

Sample G148F ; 8OG:A repair function score observed: -0.794

# 8OG:A repair function score of T116N = -0.15

Sample L290S ; 8OG:A repair function score observed: -0.022

Quick note, 8OG:A repair function score for L325M landed at -0.0835

// field: 8OG:A repair function score; key: R81W ; value = -0.422

For reference, reported 8OG:A repair function score for R88T stands at 0.00666

Item: V301E | 8OG:A repair function score: -0.439

// sample A135N , its 8OG:A repair function score was -0.227

Reported 8OG:A repair function score for A115K was -0.0104

Sample Y56K ; 8OG:A repair function score observed: -0.0455
